system: Plasmodium falciparum; assay: Displacement of [3H]farnesylpyrophosphate from Plasmodium falciparum protein farnesyltransferase at 50 nM by scintillation proximity assay
Readout label: inhibition (%)

>  <Compound>
Cn1cnc(S(=O)(=O)N(CC(=O)c2ccsc2)C2Cc3cc(C#N)ccc3N(Cc3cncn3C)C2=O)c1 (configuration not stated)

>  <Readout label>
inhibition

>  <Value unit>
%

>  <Numeric readout>
98

$$$$
>  <Compound>
Cn1cnc(S(=O)(=O)N(Cc2ccccc2)C2Cc3cc(C#N)ccc3N(Cc3cncn3C)C2=O)c1 (configuration not stated)

>  <Readout label>
inhibition

>  <Value unit>
%

>  <Numeric readout>
98

$$$$
>  <Compound>
Cn1cnc(S(=O)(=O)N(Cc2ccc(-n3cccn3)cc2)C2Cc3cc(C#N)ccc3N(Cc3cncn3C)C2=O)c1 (configuration not stated)

>  <Readout label>
inhibition

>  <Value unit>
%

>  <Numeric readout>
100

$$$$
>  <Compound>
Cn1cnc(S(=O)(=O)NC2Cc3cc(Br)ccc3N(Cc3cncn3C)C2=O)c1 (configuration not stated)

>  <Readout label>
inhibition

>  <Value unit>
%

>  <Numeric readout>
60

$$$$
>  <Compound>
Cn1cnc(S(=O)(=O)N(Cc2ccc(C#N)cc2)C2Cc3cc(C#N)ccc3N(Cc3cncn3C)C2=O)c1 (configuration not stated)

>  <Readout label>
inhibition

>  <Value unit>
%

>  <Numeric readout>
91

$$$$
>  <Compound>
Cn1cnc(S(=O)(=O)N(Cc2ccc(C(F)(F)F)o2)C2Cc3cc(C#N)ccc3N(Cc3cncn3C)C2=O)c1 (configuration not stated)

>  <Readout label>
inhibition

>  <Value unit>
%

>  <Numeric readout>
92

$$$$
>  <Compound>
Cn1cnc(S(=O)(=O)N(Cc2ccc(S(C)(=O)=O)cc2)C2Cc3cc(C#N)ccc3N(Cc3cncn3C)C2=O)c1 (configuration not stated)

>  <Readout label>
inhibition

>  <Value unit>
%

>  <Numeric readout>
99

$$$$
>  <Compound>
C=C(C)CN(C1Cc2cc(C#N)ccc2N(Cc2cncn2C)C1=O)S(=O)(=O)c1cn(C)cn1 (configuration not stated)

>  <Readout label>
inhibition

>  <Value unit>
%

>  <Numeric readout>
86

$$$$
>  <Compound>
Cc1ccccc1CN(C1Cc2cc(C#N)ccc2N(Cc2cncn2C)C1=O)S(=O)(=O)c1cn(C)cn1 (configuration not stated)

>  <Readout label>
inhibition

>  <Value unit>
%

>  <Numeric readout>
45

$$$$
>  <Compound>
Cn1cncc1CN1C(=O)C(NS(=O)(=O)c2ccccn2)Cc2cc(Br)ccc21 (configuration not stated)

>  <Readout label>
inhibition

>  <Value unit>
%

>  <Numeric readout>
36

$$$$
>  <Compound>
Cn1cnc(S(=O)(=O)N(CC(=O)NC(C)(C)C)C2Cc3cc(Br)ccc3N(Cc3cncn3C)C2=O)c1 (configuration not stated)

>  <Readout label>
inhibition

>  <Value unit>
%

>  <Numeric readout>
98

$$$$
>  <Compound>
COC(=O)C1CCC(CN(C2Cc3cc(C#N)ccc3N(Cc3cncn3C)C2=O)S(=O)(=O)c2cn(C)cn2)CC1 (configuration not stated)

>  <Readout label>
inhibition

>  <Value unit>
%

>  <Numeric readout>
98

$$$$
>  <Compound>
Cn1cnc(S(=O)(=O)NC2Cc3cc(C#N)ccc3N(Cc3cncn3C)C2=O)c1 (configuration not stated)

>  <Readout label>
inhibition

>  <Value unit>
%

>  <Numeric readout>
79

$$$$
>  <Compound>
Cn1cnc(S(=O)(=O)N(C(CC(=O)OC(C)(C)C)C(=O)OC(C)(C)C)C2Cc3cc(C#N)ccc3N(Cc3cncn3C)C2=O)c1 (configuration not stated)

>  <Readout label>
inhibition

>  <Value unit>
%

>  <Numeric readout>
0

$$$$
>  <Compound>
Cc1c(S(=O)(=O)N(CC(=O)NC(C)(C)C)C2Cc3cc(C#N)ccc3N(Cc3cncn3C)C2=O)ncn1C (configuration not stated)

>  <Readout label>
inhibition

>  <Value unit>
%

>  <Numeric readout>
24

$$$$
>  <Compound>
Cn1cncc1CN1C(=O)C(N(CC(=O)NC(C)(C)C)S(=O)(=O)c2ccc3c(c2)OCCCO3)Cc2cc(C#N)ccc21 (configuration not stated)

>  <Readout label>
inhibition

>  <Value unit>
%

>  <Numeric readout>
22

$$$$
>  <Compound>
Cn1cnc(S(=O)(=O)N(CC(=O)NC(C)(C)C)C2Cc3cc(C#N)ccc3N(Cc3cncn3C)C2=O)c1 (configuration not stated)

>  <Readout label>
inhibition

>  <Value unit>
%

>  <Numeric readout>
98

$$$$
